Tested on: SH-SY5Y cells over-expressing α-syn
Assay: Cell viability (MTS reduction) in SH-SY5Y cells over-expressing α-synuclein
Type: cell-based
Conditions: Homo sapiens, 336 h, α-syn over-expression (−dox), compounds at 0.1 nM, +dox control = 100, 14 days, read-out: Relative cell viability protection
So I've got a bunch of compounds here, and I need their viability at 0.0001 µM values.
Give bare numbers, in %.

Answered examples (3):
Inquiry: Fill in: viability at 0.0001 µM of Cc1ccc2c(c1)c1c(n2CCc2ccc(C)nc2)CCN(C)C1 [Dimebon (DMB), dimebon, reference compound] is ___
Reply text: 70.5

Inquiry: Try the compound Cc1ccc2c(c1)c1c(n2CC(O)c2ccncc2)CCNC1 (single isomer, unassigned) [39a]
Reply text: 72.5

Inquiry: Try the compound CN1CCc2c(c3cc(Cl)ccc3n2CC(O)c2ccncc2)C1 (single isomer, unassigned) [4a]
Reply text: 73.4

Give viability at 0.0001 µM for each listed item.
1. Cc1ccc2c(c1)c1c(n2CC(O)c2ccncc2)CCN(C)C1 (single isomer, unassigned) [3b]
2. Cc1ccc2c(c1)c1c(n2CC(C)(O)c2cccnc2)CCN(C)C1 (single isomer, unassigned) [5b]

Reply text:
1: 70.8; 2: 76.5

----------
Target: human recombinant adrenergic α2B receptor (Homo sapiens)
Construct: expressed in transfected cells; host or cells: CHO-K1
Sequence (P18089 whole entry): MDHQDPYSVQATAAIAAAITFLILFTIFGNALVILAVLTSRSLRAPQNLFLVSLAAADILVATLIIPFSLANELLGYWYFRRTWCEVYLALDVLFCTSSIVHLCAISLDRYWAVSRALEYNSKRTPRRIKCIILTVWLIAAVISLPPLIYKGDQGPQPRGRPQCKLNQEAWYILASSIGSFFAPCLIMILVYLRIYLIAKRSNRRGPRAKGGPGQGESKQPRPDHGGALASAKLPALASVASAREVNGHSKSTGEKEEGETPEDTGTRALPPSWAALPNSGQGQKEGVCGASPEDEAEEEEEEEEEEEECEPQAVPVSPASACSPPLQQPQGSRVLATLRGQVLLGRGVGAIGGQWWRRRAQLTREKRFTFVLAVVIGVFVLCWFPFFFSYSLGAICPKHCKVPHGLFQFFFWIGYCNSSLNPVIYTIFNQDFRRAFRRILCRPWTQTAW
Assay: Radioligand binding, adrenergic α2B ([3H]Rauwolscine)
Conditions: 0.1 μM compound; read-out: Percentage inhibition of ligand binding, Adrenergic α2B
reported_property: inhibition at 0.1 µM (%)
Give bare numbers, in %.

Answered examples (5):
Inquiry: Find inhibition at 0.1 µM (human recombinant adrenergic α2B receptor (Homo sapiens)) for the entry "CCc1ccc(/C(C)=C/n2c3c(c4cc(C)ccc42)CN(C)CC3)cn1"
Reply text: 108

Inquiry: Try the compound "C/C(=C/n1c2c(c3cc(Cl)ccc31)CCN(C)CC2)c1cccc(F)c1"
Reply text: 89

Inquiry: Try the compound "Cc1ccc2c(c1)c1c(n2C2=C(c3cccc4ccccc34)CCC2)CCN(C)C1"
Reply text: 14

Inquiry: Try the compound "Cc1ccc(CCn2c3c(c4ccc(Cl)cc42)CN(C)CC3)cn1"
Reply text: 48

Inquiry: Try the compound "C/C(=C/n1c2c(c3cc(C)ccc31)CN(C)CC2)c1cccc2[nH]ncc12"
Reply text: 96

Give inhibition at 0.1 µM for each listed item.
1. Cc1ccc2c(c1)c1c(n2CCc2ccc3c(c2)CCCC3)CCN(C)C1
2. C/C(=C\n1c2c(c3cc(C)ccc31)CN(C)CC2)c1ccc2ccccc2c1
3. COc1ccc(C(C)(O)Cn2c3c(c4cc(C)ccc42)CN(C)CC3)cc1 (stereo not drawn) [254a]
4. C/C(=C/n1c2c(c3cc(C)ccc31)CN(C)CC2)c1ccc2ccn(C)c2c1

Reply text:
[86, 76, 85, 76]

----------
So I've got a bunch of compounds here, and I need their inhibition at 0.1 µM values.
Target: rat adrenergic α1B receptor (Rattus norvegicus, UniProt P15823)
Construct: rat adrenergic α1B receptor obtained from Wistar Rat liver; from tissue; host or cells: Wistar rat liver
Sequence (P15823 1-515): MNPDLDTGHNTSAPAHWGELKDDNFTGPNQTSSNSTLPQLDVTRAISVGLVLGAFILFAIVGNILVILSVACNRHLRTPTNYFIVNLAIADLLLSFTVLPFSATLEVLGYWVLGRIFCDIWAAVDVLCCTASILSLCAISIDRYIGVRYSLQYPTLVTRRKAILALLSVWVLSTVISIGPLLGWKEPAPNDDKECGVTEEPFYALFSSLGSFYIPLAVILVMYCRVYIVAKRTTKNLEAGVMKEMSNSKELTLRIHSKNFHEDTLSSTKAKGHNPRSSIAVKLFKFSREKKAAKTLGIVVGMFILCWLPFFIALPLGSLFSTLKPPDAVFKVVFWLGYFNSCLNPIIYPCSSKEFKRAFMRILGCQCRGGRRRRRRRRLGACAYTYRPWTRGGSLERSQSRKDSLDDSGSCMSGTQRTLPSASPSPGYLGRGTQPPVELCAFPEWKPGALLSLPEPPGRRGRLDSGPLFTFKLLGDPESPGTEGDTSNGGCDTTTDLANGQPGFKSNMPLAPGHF
Test: Radioligand binding, adrenergic α1B ([3H]Prazosin)
Details: read-out: Percentage inhibition of ligand binding, Adrenergic α1B (0.1 μM), compound at 0.1 μM; [3H]Prazosin; repeat datapoints each shown
Give bare numbers, in %.

Answered examples (2):
Inquiry: Fill in: inhibition at 0.1 µM of "Cc1ccc(CCn2c3c(c4ccc(C(F)(F)F)cc42)CN(C)CC3)cn1" is ___
Reply text: 14

Inquiry: Try the compound CN1CCc2c(c3cc(C(F)(F)F)ccc3n2CC(C)(O)c2cccnc2)C1 (single isomer, unassigned) [174a]
Reply text: 13

Give inhibition at 0.1 µM for each listed item.
1. Cc1cnc2c(c1)c1c(n2CCc2cccnc2)CCN2CCCC12 (single isomer, unassigned) [134b]
2. Cc1ccc2c(c1)c1c(n2C(C)C(O)c2ccncc2)CCN(C)C1 (centres unmarked) [127b]
3. Cc1cnc2c(c1)c1c(n2CC(O)c2ccc(C#N)cc2)CCNC1 (centres unmarked)
4. Cc1ccc2c(c1)c1c(n2CC(C)(F)c2cccnc2)CCN(C)C1 (centres unmarked)

Reply text:
1: 93; 2: 13; 3: 4; 4: 29

Give inhibition at 0.1 µM for each listed item.
1. C/C(=C\n1c2c(c3cc(C)ccc31)C1CCCN1CC2)c1ccc(C)nc1 (single isomer, unassigned) [193b]
2. COC(=O)CC(Cn1c2c(c3cc(C)ccc31)CN(C)CC2)c1ccncc1 (centres unmarked)

Reply text:
91
9
